Molecular target: HLA-B*07:02
Experiment: IEDB peptide-MHC binding, purified MHC/direct/fluorescence; filed as Kd, often an IC50 or EC50 that approximates it; bounds were set here for any values at or beyond the usual limits of such assays
Conditions: source organism: West Nile virus
Property name: Kd

>>> df
   sequence_string  result_value
0        AHYEEDVNL       ≥ 20 µM
1        LVKTESWIL       ≥ 20 µM

Turning now to a further sequence:
// query Kd value for entry YTMDGEYRL
≥ 20 µM

---

Molecular target: HLA-B*57:01
Experiment: IEDB peptide-MHC binding, purified MHC/competitive/fluorescence; filed as Kd, often an IC50 or EC50 that approximates it; bounds were set here for any values at or beyond the usual limits of such assays
Settings: source organism: Rickettsia sibirica 246
pKd: −log10 of the molar value.
Property name: pKd

Consider the sequence shown here: AMYDPQTYY What is its recorded pKd?
≤ 4.70

These data points were gathered from the Immune Epitope Database (IEDB).
